Each record here notes measured normalized growth.
Test: chemical genetic growth profiling, strain panel (AID 1159580);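 note: tested at 20 µM; growth read once vehicle control cultures reached saturation at 30 °C; 1 = growth at the plate median or of vehicle wells; lower values mean less growth of the strain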
Settings: S. cerevisiae deletion strains, growth OD, locus YKL160W, strain elf1, active compounds read low
Out of some 5,500 compounds screened, about 2,000 (36%) were called active. Inconclusive results (about 18%) are left out. The list shows a part of the results.
Just the number, please.

Compound	Numeric Value
O=S(=O)(O)CCS	0.941
Cn1c(=O)c2c(ncn2CC(O)CO)n(C)c1=O (configuration not stated)	1.06
C[C@H]1COc2c(N3CCN(C)CC3)c(F)cc3c(=O)c(C(=O)O)cn1c23	1.01

compound CCn1cc(C(=O)O)c(=O)c2cc(F)c(N3CCNCC3)nc21 , normalized growth observed: 1

====

Each record here notes measured normalized growth.
Assay: chemical genetic growth profiling, strain panel (AID 1159580)
Settings: S. cerevisiae deletion strains, growth OD, locus YMR205C, strain PFK2, active compounds read low
Screen size: about 5,500 compounds; about 2,000 (36%) were called active. Roughly 18% stayed inconclusive and do not appear here. Some of the results follow.
Just the number, please.

Known results for compounds:
Compound	normalized growth
CNCCC(Oc1ccc(C(F)(F)F)cc1)c1ccccc1 (stereo unspecified)	0.967
C=C1CCC2[C@](C)(CO)[C@H](O)CC[C@@]2(C)[C@@H]1C/C=C1/C(=O)OC[C@H]1O (stereo partly specified)	0.995
CCCCNC(=O)NS(=O)(=O)c1ccc(C)cc1	1.01
COC(=O)[C@@H]1OC(=O)C2OC23[C@@]1(C)CCC1[C@]2(C)C(C[C@H](O)[C@]13C)C(C)(C)[C@H](OC(C)=O)C[C@@H]2OC(C)=O (stereo partly specified)	1.02
C=C[C@@](C)(O)CCC1C(=C)C[C@H](O)C2C(C)(C)CCCC12C (stereo partly specified)	0.934
OCC(O)CN1CCN(c2ccccc2)CC1 (stereo unspecified)	1.01
COc1ccc(C2CNC(=O)C2)cc1OC1CCCC1 (stereo unspecified)	1.03
NCCCS(=O)(=O)O	1.02

compound COc1cc([C@@H]2c3cc4c(cc3C(OC3O[C@@H]5COC(C)O[C@H]5[C@H](O)[C@H]3O)C3COC(=O)[C@@H]32)OCO4)cc(OC)c1O (stereo partly specified) , normalized growth observed: 1.02

compound Clc1ccc(C(c2ccc(Cl)cc2)C(Cl)(Cl)Cl)cc1 , normalized growth observed: 0.977

compound COc1ccc(C(CN(C)C)C2(O)CCCCC2)cc1 (stereo unspecified) , normalized growth observed: 0.998

====

Each record here notes measured normalized growth.
Assay: chemical genetic growth profiling, strain panel (AID 1159580);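 note: tested at 20 µM; growth read once vehicle control cultures reached saturation at 30 °C; 1 = growth at the plate median or of vehicle wells; lower values mean less growth of the strain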
Details: S. cerevisiae deletion strains, growth OD, locus YMR205C, strain PFK2, active compounds read low
The campaign covered roughly 5,500 compounds. About 2,000 (36%) were called active. Not shown: some 18% with an inconclusive outcome. Some of the results follow.
Just the number, please.

Molecule	normalized growth
CN1CCC(OC(c2ccccc2)c2ccccc2)CC1	1.03
Clc1ccc(C(OCCN2CCCCC2)c2ccccc2)cc1 (stereo not given)	1.01
O=C1NCC2(CCN(CCc3ccccc3)CC2)O1	1.01
CN(C)CCOC(c1ccc(Cl)cc1)c1ccccn1 (stereo not given)	1.03

Note: attention shifts to another entry.
molecule CCC(C)C(=O)O[C@@H]1C[C@@]2(C)[C@H](c3ccoc3)OC(=O)CC23OC2(C)OC34[C@H](OC(=O)C(C)C)[C@@]3(O)[C@@H](OC(=O)C5(C)OC5C)[C@@]5(C)C[C@]3(O)[C@@](C)([C@H]5CC(=O)OC)C14O2 (stereo not given in full) , normalized growth observed: 0.975

====

Assay: chemical genetic growth profiling, strain panel (AID 1159580);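 note: tested at 20 µM; growth read once vehicle control cultures reached saturation at 30 °C; 1 = growth at the plate median or of vehicle wells; lower values mean less growth of the strain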
Conditions: S. cerevisiae deletion strains, growth OD, locus YOR069W, strain VPS5, active compounds read low
In all, about 5,500 compounds went through this assay and about 2,000 (36%) were called active. Inconclusive results (about 18%) are left out. Some of the results follow.
Each record here notes measured normalized growth.
Just the number, please.

Known results for compounds:
Compound	normalized growth
CCCCCCC(C)OC(=O)COc1cc(Cl)c(Cl)cc1Cl (centres undefined)	1
COC(=O)C[C@H]1C2(C)CC34OC5(C)O[C@@]6([C@H](OC)C(OC(=O)C(C)C)[C@]7(C)C(/C(=C(/OC)C(C)C)C(=O)O[C@H]7c7ccoc7)[C@@]6(O5)[C@H](OC)[C@@]3(OC)C2OC(C)=O)[C@]14C (some centres undefined)	1.01
CCn1cc(C(=O)O)c(=O)c2cc(F)c(N3CCNCC3)nc21	1.01
Nc1nc(=S)c2[nH]cnc2[nH]1	1.01
CC1COc2c(N3CCN(C)CC3)c(F)cc3c(=O)c(C(=O)O)cn1c23 (centres undefined)	1

compound COc1ccc2c(c1)OC1(O)COc3cc(OC)c(OC)cc3C1=C2 (centres undefined) , normalized growth observed: 1.01

compound O=C1C(Cl)=C(Cl)C(=O)C(Cl)=C1Cl , normalized growth observed: 0.577

compound COc1ccc(OC)c(C(O)CNC(=O)CN)c1 (centres undefined) , normalized growth observed: 0.995

compound NC(=O)c1ccc[n+]([C@@H]2O[C@H](COP(=O)([O-])OP(=O)(O)OC[C@H]3O[C@@H](n4cnc5c(N)ncnc54)[C@H](OP(=O)(O)O)[C@@H]3O)[C@@H](O)[C@H]2O)c1 , normalized growth observed: 1.01

compound Cc1[nH]c2ccccc2c1CN(C)C , normalized growth observed: 0.995

compound COc1ccc(C(c2ccc(OC)cc2)C(Cl)(Cl)Cl)cc1 , normalized growth observed: 0.992

====

Test: chemical genetic growth profiling, strain panel (AID 1159580);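 note: tested at 20 µM; growth read once vehicle control cultures reached saturation at 30 °C; 1 = growth at the plate median or of vehicle wells; lower values mean less growth of the strain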
Conditions: S. cerevisiae deletion strains, growth OD, locus YPR163C, strain tif3, active compounds read low
Hit rate of the full screen: of about 5,500 compounds, about 2,000 (36%) were called active. About 18% were inconclusive and are not listed. The list shows a part of the results.
Measurement Label: normalized growth
Just the number, please.

Known results for compounds:
Compound	normalized growth
C=C1C2CC[C@@]3(C)[C@H](c4ccoc4)OC(=O)C[C@]13O[C@H]1CC(=O)C(C)(C)[C@H](C(OC(C)=O)C(=O)OC)[C@@]21C (stereo partly drawn)	1.01
NCCc1cnc[nH]1	1.03
CC(=O)S[C@@H]1CC2=CC(=O)CC[C@]2(C)[C@H]2CC[C@@]3(C)[C@@H](CC[C@@]34CCC(=O)O4)C12 (stereo partly drawn)	1.04
Oc1cc(O)c2c(c1)O[C@H](c1ccc(O)c(O)c1)[C@@H](O)C2	0.992

compound Cc1[nH]c2ccccc2c1CN(C)C , normalized growth observed: 0.996

compound COc1ccc(C(=O)CC(=O)O)c2c1C=CC(C)(C)O2 , normalized growth observed: 0.992

compound C[C@]12CCC(=O)C=C1C=CC1C2CC[C@@]2(C)C1CC[C@@]2(O)CCC(=O)O (stereo partly drawn) , normalized growth observed: 0.991

compound COc1cc([C@@H]2c3cc4c(cc3C(OC3O[C@@H]5COC(C)O[C@H]5[C@H](O)[C@H]3O)C3COC(=O)[C@@H]32)OCO4)cc(OC)c1O (stereo partly drawn) , normalized growth observed: 0.985

compound Oc1ccc2c(c1)O[C@H](c1ccc(O)c(O)c1)[C@@H](O)C2 , normalized growth observed: 0.999

compound COC(=O)/C=C/C(C)=C/C=C/C(C)=C/C=C/C=C(C)/C=C/C=C(C)/C=C/C(=O)O , normalized growth observed: 1

compound COc1ccc2c(c1)OC1(O)COc3cc(OC)c(OC)cc3C1=C2 (stereo not drawn) , normalized growth observed: 0.983

compound CC[C@@]1(O)C[C@H](O[C@H]2C[C@H](N(C)C)[C@H](O)[C@H](C)O2)c2c(cc3c(c2O)C(=O)c2c(O)cccc2C3=O)[C@H]1C(=O)OC , normalized growth observed: 0.783

compound Oc1cc(O)c2c(c1)O[C@H](c1cc(O)c(O)c(O)c1)[C@H](O)C2 , normalized growth observed: 0.988

compound CCCCNC(=O)NS(=O)(=O)c1ccc(C)cc1 , normalized growth observed: 0.979

compound CC[C@@H](C(=O)C(C)[C@@H](O)[C@H](C)CCc1ccc(C)c(O)c1C(=O)O)C1OC(CC)(C2CC[C@](O)(CC)[C@H](C)O2)C[C@@H]1C (stereo partly drawn) , normalized growth observed: 1.07

compound NCCC(O)C(=O)NC1CC(N)C(OC2OC(CN)C(O)C(O)C2N)C(OC2OC(CO)C(O)C2O)C1O (stereo not drawn) , normalized growth observed: 1

compound Oc1cc(O)c2c(c1)O[C@H](c1ccc(O)c(O)c1)[C@H](O)C2 , normalized growth observed: 0.991

compound Oc1cc(O)c2c(c1)OC(c1cc(O)c(O)c(O)c1)C(O)C2c1c(O)cc(O)c2c1OC(c1cc(O)c(O)c(O)c1)C(O)C2c1c(O)cc(O)c2c1OC(c1cc(O)c(O)c(O)c1)C(O)C2 (stereo not drawn) , normalized growth observed: 1.01
